This collection of values is drawn from patent US20260209346A1.

- SYSTEM: T1, CD79b endogenously expressed on the cell surface (malignant B cell lines, normal B cells in PBMC, CLL … (human, UniProt P40259 29-229))
- T1 construct: whole, on cells; On cells CD79b stands in the B-cell receptor complex with CD79a and surface Ig; also called cell surface CD79b; endogenous CD79b
- T1 sequence (looked up): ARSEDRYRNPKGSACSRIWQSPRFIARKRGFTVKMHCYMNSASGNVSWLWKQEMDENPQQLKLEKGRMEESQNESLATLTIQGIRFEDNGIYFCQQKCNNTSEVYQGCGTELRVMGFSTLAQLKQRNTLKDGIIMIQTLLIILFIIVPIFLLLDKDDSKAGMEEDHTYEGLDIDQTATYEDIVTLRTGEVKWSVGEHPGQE
- PROCEDURE DETAILS: flow cytometry on Ramos cells; anti-human IgG1-PE; MFI (PE); table under the graph
RECORDED ENDPOINT: pEC50
Remember, pEC50 is on a log scale: it is -log10 of the molar concentration.

Solved cases (2 shown):
BINDER	RECORDED ENDPOINT	TEST RESULT
ch22D10 (antibody, human IgG1, kappa, V domains shown, Rabbit/human chimeric IgG1 kappa; also called chimeric 22D10) VH: QSVEESGGRLVTPGTPLTLTCTASGFTINDYHMNWVRQAPGKGLEWIGIISSNGDTYYASWAKGRFTISRTSTTVDLKMTSLTTEDTATYFCARDDRDRSYAFDPWGPGTLVTVSS VL: ALVMTQTPSSVSAAVGGTVTINCRASEDIERYLAWYQQKPGQRPKLLIYGASTLASGVPSRFKGSGSGTEYTLTISGVQPDDAATYYCHQGDSSRNVVNVFGGGTEVVVKR	pEC50	9.44
polatuzumab (antibody, V domains shown) VH: EVQLVESGGGLVQPGGSLRLSCAASGYTFSSYWIEWVRQAPGKGLEWIGEILPGGGDTNYNEIFKGRATFSADTSKNTAYLQMNSLRAEDTAVYYCTRRVPIRLDYWGQGTLVTVSS VL: DIQLTQSPSSLSASVGDRVTITCKASQSVDYEGDSFLNWYQQKPGKAPKLLIYAASNLESGVPSRFSGSGSGTDFTLTISSLQPEDFATYYCQQSNEDPLTFGQGTKVEIKR	pEC50	8.75

From here, focus on the item given below.
Find the recorded pEC50 belonging to ch48H10 (antibody, human IgG1, kappa, V domains shown, Rabbit/human chimeric IgG1 kappa; also called chimeric 48H10) VH: QSVKETGGGLVQPGGSLTLSCKASGFTINIDYWISWVRQAPGKGLEWIGIIDPGDGTTYFAIWVSGRFTISTDNAQNTVDLQMNSLTAADTATYFCAREFSASAYQYDLWGPGTLVTVSS VL: ALVMTQTPSSVSAAVGGTVSINCQASEDIESYLTWYQQKPGQPPKLLMYRASTLSSGVSSRFSASGSGTEFTLTISGVQPDDAATYYCQQGYRNKDVDNPFGGGTEVVVKR and report it.
8.88
